- Protocol: Octanol/water partition coefficient, shake-flask with UV–vis
- Type: physicochemical
- Experimental setup: 21 °C
Test readout: Log Pow

# Molecule, Test readout, Comparison operator, Measured value
records = [
    ("CC12CCC3C(CCC4=CC(=O)CCC43C)C1CCC2=C=[CH][Ru]1(=[C]=O)([CH]2C=CC=C2)[C](=O)[Ru+]1(=[C]=O)[CH]1C=CC=C1.F[B-](F)(F)F (mixture of isomers)", "Log Pow", "=", 0.89),
    ("CC12CCC3c4ccc(O)cc4CCC3C1CCC2=C=[CH][Ru]1(=[C]=O)([CH]2C=CC=C2)[C](=O)[Ru+]1(=[C]=O)[CH]1C=CC=C1.F[B-](F)(F)F (mixture of isomers)", "Log Pow", "=", 1.24),
    ("O=[C]=[Ru]12([CH]3C=CC=C3)[CH]=C(C3(O)CCCC3)[C](=O)[Ru]1([CH]1C=CC=C1)[C]2=O (centres unmarked)", "Log Pow", ">", 1.5),
    ("CC12CCC(=O)C=C1CCC1C2CCC2(C)C1CCC2(O)C1=[CH][Ru]2(=[C]=O)([CH]3C=CC=C3)[C](=O)[Ru]2([CH]2C=CC=C2)[C]1=O (centres unmarked)", "Log Pow", ">", 1.5),
]

====

- Protocol: Stability in H2O/CH3OH solution (UV–vis)
- Type: physicochemical
- Experimental setup: ca. 5:1 v/v, 2 h
Param threshold (90%) applies to residual complex % in H2O/CH3OH; output criterion met when value >= threshold, criterion not met when value < threshold.

# Compound, Assigned category
records = [
    ("CC12CCC(=O)C=C1CCC1C2CCC2(C)C1CCC2(O)C1=[CH][Ru]2(=[C]=O)([CH]3C=CC=C3)[C](=O)[Ru]2([CH]2C=CC=C2)[C]1=O (centres unmarked)", "criterion not met"),
    ("F[B-](F)(F)F.O=[C]=[Ru+]1([CH]2C=CC=C2)[C](=O)[Ru]1(=[C]=O)([CH]=C=C1CCCC1)[CH]1C=CC=C1 (centres unmarked)", "criterion met"),
    ("CC12CCC3C(CCC4=CC(=O)CCC43C)C1CCC2=C=[CH][Ru]1(=[C]=O)([CH]2C=CC=C2)[C](=O)[Ru+]1(=[C]=O)[CH]1C=CC=C1.F[B-](F)(F)F (mixture of isomers)", "criterion met"),
]
